Just for reference, patent US20240418701A1 is where these values come from.

target: MspA-PBA (boronic acid appended hetero-octameric MspA) (Mycolicibacterium smegmatis, UniProt A0QR29, D117C/D118N/D120N/D145R/D161R/E166K); construct: H6 (hexa-histidine) (C); 3-(maleimide) phenylboronic acid (MPBA) adduct on the thiol of Cys90; made in house; host or cells: E. coli BL21 (DE3) pLysS, co-expression from pETDuet-1; assay: Single channel recording of alditol binding to MspA-PBA nanopore (standards and zero-sugar drinks); parameters: species or system Mycobacterium smegmatis; conditions: alditol 8 mM in cis, +100 mV, N=3
Sequence (A0QR29 other isoform, or with tags, fused parts or gaps D117N/D118N/D120N/D145R/D161R/E166K): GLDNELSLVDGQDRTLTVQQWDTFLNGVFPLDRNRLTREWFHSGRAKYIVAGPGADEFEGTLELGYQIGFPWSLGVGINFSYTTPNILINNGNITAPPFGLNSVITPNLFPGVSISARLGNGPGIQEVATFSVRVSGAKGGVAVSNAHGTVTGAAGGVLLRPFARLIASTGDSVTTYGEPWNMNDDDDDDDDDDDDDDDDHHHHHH
Sequence (A0QR29 other isoform, or with tags, fused parts or gaps D117C/D118N/D120N/D145R/D161R/E166K): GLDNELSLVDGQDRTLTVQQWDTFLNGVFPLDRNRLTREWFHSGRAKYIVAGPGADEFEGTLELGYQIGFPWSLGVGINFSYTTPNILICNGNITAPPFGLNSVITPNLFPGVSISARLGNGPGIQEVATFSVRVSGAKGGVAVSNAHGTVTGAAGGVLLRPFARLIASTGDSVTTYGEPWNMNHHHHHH

[
  {
    "compound": "OC[C@@H](O)[C@@H](O)CO [erythritol]",
    "1/τon, s⁻¹": 1.59
  },
  {
    "compound": "OC[C@@H](O)[C@@H](O)[C@H](O)[C@@H](O)CO [D-sorbitol]",
    "1/τon, s⁻¹": 1.7
  },
  {
    "compound": "OCC(O)CO [glycerol]",
    "1/τon, s⁻¹": 1.7
  },
  {
    "compound": "OC[C@@H](O)[C@H](O)[C@@H](O)CO [xylitol]",
    "1/τon, s⁻¹": 1.71
  }
]

###

molecular target: MspA-PBA (boronic acid appended hetero-octameric MspA) (Mycolicibacterium smegmatis, UniProt A0QR29, D117C/D118N/D120N/D145R/D161R/E166K); construct: H6 (hexa-histidine) (C); 3-(maleimide) phenylboronic acid (MPBA) adduct on the thiol of Cys90; made in house; host or cells: E. coli BL21 (DE3) pLysS, co-expression from pETDuet-1; test: Single channel recording of alditol binding to MspA-PBA nanopore (standards and zero-sugar drinks); set-up: species or system Mycobacterium smegmatis; details: voltage series: +60 mV, glycerol 12 mM, other alditols 8 mM, N=3
Here the recorded 1/τon is given for each entry.

[
  {
    "smiles-string": "OC[C@@H](O)[C@@H](O)CO",
    "1/τon / s⁻¹": 1.62
  },
  {
    "smiles-string": "OC[C@@H](O)[C@H](O)[C@@H](O)CO",
    "1/τon / s⁻¹": 1.66
  },
  {
    "smiles-string": "OCC(O)CO",
    "1/τon / s⁻¹": 2.2
  },
  {
    "smiles-string": "OC[C@@H](O)[C@@H](O)[C@H](O)[C@@H](O)CO",
    "1/τon / s⁻¹": 1.67
  }
]

###

Here the recorded 1/τoff is given for each entry.
target: MspA-PBA (phenylboronic acid modified hetero-octameric (N90C)1(M2)7 MspA) (Mycolicibacterium smegmatis, UniProt A0QR29, D117C/D118N/D120N/D145R/D161R/E166K); construct: H6 (hexa-histidine) (C); 3-(maleimide) phenylboronic acid (MPBA) adduct on the thiol of Cys90; made in house; host or cells: E. coli BL21 (DE3) pLysS, co-expression from pETDuet-1; assay type: binding, Mycobacterium smegmatis; settings: NMP 200 μM in cis, +200 mV, three independent measurements
measurement-kind: 1/τoff (s⁻¹)

[
  {
    "compound": "O=c1ccn([C@@H]2O[C@H](COP(=O)(O)O)[C@@H](O)[C@H]2O)c(=O)[nH]1 [UMP, uridine-5′-monophosphate]",
    "result": 7.4
  },
  {
    "compound": "Nc1ccn([C@@H]2O[C@H](COP(=O)(O)O)[C@@H](O)[C@H]2O)c(=O)n1 [CMP, Cytidine-5′-monophosphate]",
    "result": 20.9
  },
  {
    "compound": "Nc1ncnc2c1ncn2[C@@H]1O[C@H](COP(=O)(O)O)[C@@H](O)[C@H]1O [AMP, adenosine-5′-monophosphate]",
    "result": 15.1
  },
  {
    "compound": "Nc1nc2c(ncn2[C@@H]2O[C@H](COP(=O)(O)O)[C@@H](O)[C@H]2O)c(=O)[nH]1 [GMP, guanosine-5′-monophosphate]",
    "result": 10.6
  }
]
